Each recorded value in this set is attributed to patent US6906176B2.

- experimental.target: recombinant light chain enterokinase (Bos taurus)
- Construct: enterokinase cleavage using 30 nM recombinant light chain enterokinase (Novagen); purchased Novagen, Madison, Wis
- Sequence (P98072 801-1035 limits assumed): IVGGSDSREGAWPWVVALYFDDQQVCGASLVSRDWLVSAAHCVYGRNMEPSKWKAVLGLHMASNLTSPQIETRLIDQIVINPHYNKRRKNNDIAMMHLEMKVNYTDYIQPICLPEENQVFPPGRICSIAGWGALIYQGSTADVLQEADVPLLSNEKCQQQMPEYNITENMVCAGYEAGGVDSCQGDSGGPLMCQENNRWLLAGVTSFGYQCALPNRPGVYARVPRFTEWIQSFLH
- method.notes: Relative rate of cleavage of synthetic peptides by HPLC
- Format: biochemical
- assay.setup: relative to GDDDDK-βNA; peptides tested individually at 500 μM
Threshold check on rate relative to standard substrate: at or above 2 gives label 1, strictly below gives label 0.

Here are 2 substances together with their reported answers.
Q. Could you please find out whether GNYTDRRFI (synthetic enterokinase cleavage sequence) has rate relative to standard substrate that meets 2 or exceeds it?
A. label 0

Q. Reported rate relative to standard substrate reaches at least 2 for GDDDDKIYV (natural enterokinase cleavage sequence) [reference compound] ?
A. label 0

Continuing:
Q. Please check the record NKAKDRMFI (synthetic enterokinase cleavage sequence) and state if its rate relative to standard substrate is at or above 2.
A. label 0

Q. Threshold query (rate relative to standard substrate >= 2) on DINDDRSLF (synthetic enterokinase cleavage sequence)
A. label 1

Q. Reported rate relative to standard substrate at or above 2? GNYTDRMFI (synthetic enterokinase cleavage sequence)
A. label 0

Q. Does GNYTDRYFI (commercial synthetic enterokinase cleavage substrate) have a reported rate relative to standard substrate of at least 2?
A. label 0
